target-system: JAK2 (Homo sapiens, UniProt O60674)
Construct: purchased Invitrogen
Sequence (O60674 whole entry): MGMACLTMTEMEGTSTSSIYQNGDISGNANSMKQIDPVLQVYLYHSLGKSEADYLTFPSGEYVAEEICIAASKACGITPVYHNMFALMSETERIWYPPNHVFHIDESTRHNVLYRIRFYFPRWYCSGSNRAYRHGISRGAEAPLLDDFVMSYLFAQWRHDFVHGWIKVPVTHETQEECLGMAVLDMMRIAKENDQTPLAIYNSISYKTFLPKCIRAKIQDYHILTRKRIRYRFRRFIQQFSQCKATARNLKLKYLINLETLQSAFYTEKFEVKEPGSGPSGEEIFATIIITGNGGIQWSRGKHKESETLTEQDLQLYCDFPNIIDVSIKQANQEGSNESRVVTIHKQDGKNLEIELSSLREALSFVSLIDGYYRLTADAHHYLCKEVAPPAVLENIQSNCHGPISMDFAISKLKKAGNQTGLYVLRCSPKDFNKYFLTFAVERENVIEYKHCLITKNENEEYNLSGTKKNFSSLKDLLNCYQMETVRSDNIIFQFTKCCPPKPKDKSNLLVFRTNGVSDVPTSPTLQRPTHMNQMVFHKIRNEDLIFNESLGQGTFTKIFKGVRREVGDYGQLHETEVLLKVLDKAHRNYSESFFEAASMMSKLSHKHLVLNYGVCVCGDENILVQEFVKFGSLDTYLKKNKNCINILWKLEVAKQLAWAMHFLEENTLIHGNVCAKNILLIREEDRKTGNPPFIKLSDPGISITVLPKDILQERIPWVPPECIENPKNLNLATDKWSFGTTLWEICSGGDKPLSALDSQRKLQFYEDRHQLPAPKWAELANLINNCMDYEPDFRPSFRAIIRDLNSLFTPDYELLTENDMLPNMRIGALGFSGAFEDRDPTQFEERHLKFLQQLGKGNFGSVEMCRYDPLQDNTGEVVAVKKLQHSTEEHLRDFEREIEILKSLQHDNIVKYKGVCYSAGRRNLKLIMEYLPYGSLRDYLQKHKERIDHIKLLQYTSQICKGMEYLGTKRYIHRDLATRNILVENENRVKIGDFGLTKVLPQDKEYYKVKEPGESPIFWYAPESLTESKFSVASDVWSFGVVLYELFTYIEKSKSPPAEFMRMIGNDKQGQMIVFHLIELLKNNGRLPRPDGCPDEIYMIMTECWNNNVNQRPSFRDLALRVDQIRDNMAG
test: JAK2 enzyme inhibition test (LANCE method)
Assay type: biochemical
condition-details: 1 μM test compound; read-out: JAK2 enzyme inhibitory activity (%, 1 μM)
# Lookup of reported inhibition at 1 µM keyed by entry
Give the value, in units of %, as a plain number.

• CN1CCCN(c2cc(-c3cn(C(C4CC4)C4CC4)c(=O)c4c(N)n[nH]c34)nn2C)CC1 = 100
• CN(C)C[C@H]1CCCN1c1cc(-c2cn(-c3c(F)cccc3F)c(=O)c3c(N)n[nH]c23)nn1C = 98
• CN(C[C@H]1CCCN1c1cc(-c2cn(C(C3CC3)C3CC3)c(=O)c3c(N)n[nH]c23)nn1C)C(=O)OC(C)(C)C = 94
• CN(C)[C@@H]1CCN(c2cc(-c3cn(C(C4CC4)C4CC4)c(=O)c4c(N)n[nH]c34)nn2C)C1 = 99
• COC1(c2cc(-c3cn(-c4c(F)cccc4F)c(=O)c4c(N)n[nH]c34)nn2C)CCS(=O)(=O)CC1 = 99

Form field inhibition at 1 µM, entry "CC(C)[C@H](C)n1cc(-c2cc(CN3CCCC3=O)n(C)n2)c2[nH]nc(N)c2c1=O" : 99

# inhibition at 1 µM (molecule: "COC1(c2cc(-c3cn([C@@H](C)C(C)C)c(=O)c4c(N)n[nH]c34)nn2C)CN(C(=O)C(C)C)C1" ) is 97

Entry "CC(C)[C@H](C)n1cc(-c2cc(N3CCCC3)n(C)n2)c2[nH]nc(N)c2c1=O" ; inhibition at 1 µM = 98

Record summary for CC(n1cc(-c2cc(N3CCOCC3)n(C)n2)c2[nH]nc(N)c2c1=O)C(C)(C)O (stereo not drawn) : reported inhibition at 1 µM = 85

Lab note: measured inhibition at 1 µM of CC(C)C(C#N)n1cc(-c2cc(N3CCOCC3)n(C)n2)c2[nH]nc(N)c2c1=O (racemic) was 98

Entry "Cn1nc(-c2cn(C(C3CC3)C3CC3)c(=O)c3c(N)n[nH]c23)cc1N1CCC[C@@H]1CO" — recorded inhibition at 1 µM = 99
